Attribution: paper PMC9482650

- tgt: NHERF4_1, Q86UT5-2
- Sequence (Q86UT5 other isoform, or with tags, fused parts or gaps): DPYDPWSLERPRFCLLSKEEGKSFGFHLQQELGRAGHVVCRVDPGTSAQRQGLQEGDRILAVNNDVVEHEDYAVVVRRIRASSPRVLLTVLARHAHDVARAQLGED
- protocolText: holdup assay
- Parameters: key: below the threshold = too weak to quantify, mostly under pKd 3.1 to 4
- conditionDetails: plain residues with an end cap or a label only (N-terminal biotin on a linker: ttds)
measuredProperty: pKd

1. GRLLGLETNV [ARHGEF26, Q96DR7] = below the threshold
2. GARVSKETPL [MAPK12, P53778] = 3.85
3. PPRQRSETQV [HPV82-E6, Q9IR59] = below the threshold
4. SRSRRRETAL [HPV33-E6, P06427] = 4.42
5. DLDEEEDTHL [PODXL, O00592] = below the threshold
6. PSRDRKETSI [RALBP1, Q15311] = 3.36
7. SGGKRKETLV [NET1, Q7Z628] = below the threshold
8. QRPYRRESEI [KCNJ12, Q14500] = below the threshold
9. KLVIKTETTV [RASSF6, Q6ZTQ3] = below the threshold
10. NPDALPETLV [ARHGAP6, O43182] = 3.6
11. KQVVPFSSSV [GDA, Q9Y2T3] = below the threshold
12. SHSSKGETAV [FZD7, O75084] = below the threshold
13. FVETQHQTQV [FAT3, Q8TDW7] = below the threshold
14. PFRSRSPSEV [GPR6, P46095] = below the threshold
15. SSIDLWETAL [SLC15A5, A6NIM6] = 4.71
